# credit: patent US20210347727A1

Test system: calpain activity in SH-SY5Y cells
protocol: SH-SY5Y cellular calpain activity, Suc-LLVY-AMC fluorescence assay
Format: cell-based
test conditions: Suc-LLVY-AMC substrate
pIC50: −log10 of the molar value.
recorded endpoint: pIC50

> print(dat)
                                    molecule   test.result
 1  NC(=O)C(=O)[C@H](Cc1ccccc1)NC(=O)c1c(C(F)(F)F)cccc1C(F)(F)F [Compound 20]  4.60 to 5.00
 2  NC(=O)C(=O)C(Cc1ccccc1)NC(=O)c1c(Cl)ccc2ccccc12 (stereo not drawn) [Compound 13]  4.60 to 5.00
 3  O=CC(Cc1ccccc1)NC(=O)c1c(Cl)ccc2ccccc12 (stereo not drawn) [Compound 44]        > 5.00
 4  Cc1ccc(Cl)c(C(=O)N[C@@H](Cc2ccccc2)C(=O)C(N)=O)c1F [Compound 31]        > 5.00
 5  NC(=O)C(=O)[C@H](Cc1ccccc1)NC(=O)c1c(Cl)cccc1Br [Compound 14]        > 5.00
 6  COc1cccc(OC)c1C(=O)N[C@@H](Cc1ccccc1)C(=O)C(N)=O [Compound 18]        < 4.60
 7  NC(=O)C(=O)C(Cc1ccccc1)NC(=O)C1c2ccccc2-c2ccccc21 (stereo not drawn) [Compound 10]  4.60 to 5.00
 8  NC(=O)C(=O)[C@H](Cc1ccccc1)NC(=O)c1c(Cl)cccc1Cl [Compound 1]        < 4.60
 9  NC(=O)C(=O)C(Cc1ccccc1)NC(=O)c1cccc2c1Oc1ccccc1O2 (stereo not drawn) [Compound 7]        < 4.60
10  COc1ccc(Cl)cc1C(=O)N[C@@H](Cc1ccccc1)C(=O)C(N)=O [Compound 17]        > 5.00
11  NC(=O)C(=O)[C@H](Cc1ccccc1)NC(=O)c1c(F)cc(F)cc1F [Compound 3]  4.60 to 5.00
12  NC(=O)C(=O)[C@H](Cc1ccccc1)NC(=O)c1c(Cl)cccc1-c1ccccc1 [Compound 21]        < 4.60
